IC50: recorded values
- tgt: human TOR (Homo sapiens)
- Construct: FLAG
- assay-remarks: mTOR enzyme assay (DELFIA, His6-S6K substrate)
- Format: biochemical
- measurement-conditions: read-out: mTOR Kinase Avg. IC50

For orientation, consider the following solved cases.
O=C1/C(=C/c2c[nH]c3ccc(OCc4ccccc4)cc23)Oc2cc(O)ccc21 : > 20 µM
COc1ccc2c(c1)c(/C=C1\Oc3cc(O)cc(O)c3C1=O)c(-c1cnn(C)c1)n2CCN1CCN(C)CC1 : 0.0108 µM
Cn1c(-c2ccccc2)c(/C=C2\Oc3cccc(O)c3C2=O)c2ccccc21 : > 20 µM

Challenge: Give IC50 for O=C1C(=Cc2c[nH]c3ccccc23)Oc2cc(O)ccc21 tested on human TOR (Homo sapiens).
Response given: > 20 µM

----------
- tgt: PI3K-gamma (Homo sapiens, UniProt P48736)
- Sequence (P48736 whole entry, species assumed): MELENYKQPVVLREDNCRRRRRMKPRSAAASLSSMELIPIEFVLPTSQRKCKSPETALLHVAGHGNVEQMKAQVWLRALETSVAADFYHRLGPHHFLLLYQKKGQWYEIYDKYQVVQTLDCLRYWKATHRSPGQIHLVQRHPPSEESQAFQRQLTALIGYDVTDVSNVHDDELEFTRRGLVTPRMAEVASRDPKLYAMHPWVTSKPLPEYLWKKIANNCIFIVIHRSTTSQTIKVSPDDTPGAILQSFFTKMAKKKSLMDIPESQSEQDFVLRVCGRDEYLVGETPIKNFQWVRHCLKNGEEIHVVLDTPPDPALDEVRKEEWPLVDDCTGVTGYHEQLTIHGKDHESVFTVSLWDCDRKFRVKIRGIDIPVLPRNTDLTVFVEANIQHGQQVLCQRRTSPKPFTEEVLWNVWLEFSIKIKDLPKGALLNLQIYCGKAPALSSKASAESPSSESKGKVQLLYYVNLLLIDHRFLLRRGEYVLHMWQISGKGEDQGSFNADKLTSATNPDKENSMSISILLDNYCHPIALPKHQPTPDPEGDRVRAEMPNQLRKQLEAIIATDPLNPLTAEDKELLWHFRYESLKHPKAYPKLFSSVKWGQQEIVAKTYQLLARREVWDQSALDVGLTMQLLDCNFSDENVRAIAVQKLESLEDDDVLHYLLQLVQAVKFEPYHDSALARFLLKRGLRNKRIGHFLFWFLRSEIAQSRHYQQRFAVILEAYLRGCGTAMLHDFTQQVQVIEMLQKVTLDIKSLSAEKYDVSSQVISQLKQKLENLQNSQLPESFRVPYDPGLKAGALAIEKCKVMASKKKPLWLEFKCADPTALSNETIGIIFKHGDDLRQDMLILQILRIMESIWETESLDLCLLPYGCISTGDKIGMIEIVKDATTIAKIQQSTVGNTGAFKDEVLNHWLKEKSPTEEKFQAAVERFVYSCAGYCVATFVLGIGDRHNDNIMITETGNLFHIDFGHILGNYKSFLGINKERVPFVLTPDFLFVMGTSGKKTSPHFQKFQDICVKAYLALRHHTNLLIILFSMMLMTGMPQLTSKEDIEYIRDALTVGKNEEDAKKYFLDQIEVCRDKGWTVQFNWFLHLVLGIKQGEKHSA
- assay-remarks: PI3K-gamma fluorescence polarization assay
- Format: biochemical
- measurement-conditions: PI3Kγ Avg. IC50
Friendly reminder: IC50 below 1 µM is yes (1), at or above is no (0).

Here are 3 compounds together with their reported answers.
Cc1[nH]c2ccc(Cl)cc2c1C=C1Oc2cc(O)cc(O)c2C1=O : no (0)
COc1ccc2c(c1)c(/C=C1\Oc3ccc(NC(=O)Nc4ccc(C(=O)N5CCN(C)CC5)cc4)cc3C1=O)c(C)n2C : yes (1)
COc1cc(/C=C/CN2CCN(C)CC2)c2[nH]cc(/C=C3\Oc4cc(O)ccc4C3=O)c2c1 : no (0)

Challenge: IC50 under 1 µM? Item: COc1ccc2c(c1)c(/C=C1\Oc3ccc(NC(C)=O)cc3C1=O)cn2CCCN(C)C
Response given: no (0)

Challenge: IC50 under 1 µM? Item: COc1ccc2c(c1)c(/C=C1\Oc3cc(O)cc(O)c3C1=O)c(C(=O)N(C)C)n2CC(=O)N(C)C
Response given: yes (1)

Challenge: IC50 under 1 µM? Item: Cn1cc(/C=C2\Oc3cc(O)cc(O)c3C2=O)c2c(-c3ccncc3)cccc21
Response given: no (0)

Challenge: IC50 under 1 µM? Item: CCc1cc(OC)cc2c(/C=C3\Oc4cc(O)cc(O)c4C3=O)cn(CCN3CCN(C)CC3)c12
Response given: no (0)

Challenge: IC50 under 1 µM? Item: C=CCNC(=O)Nc1ccc2c(c1)C(=O)/C(=C/c1cn(CCN3CCN(C)CC3)c3ccc(OC)cc13)O2
Response given: no (0)

----------
- tgt: PI3K-alpha (Homo sapiens)
- Sequence (P42336 whole entry, species assumed): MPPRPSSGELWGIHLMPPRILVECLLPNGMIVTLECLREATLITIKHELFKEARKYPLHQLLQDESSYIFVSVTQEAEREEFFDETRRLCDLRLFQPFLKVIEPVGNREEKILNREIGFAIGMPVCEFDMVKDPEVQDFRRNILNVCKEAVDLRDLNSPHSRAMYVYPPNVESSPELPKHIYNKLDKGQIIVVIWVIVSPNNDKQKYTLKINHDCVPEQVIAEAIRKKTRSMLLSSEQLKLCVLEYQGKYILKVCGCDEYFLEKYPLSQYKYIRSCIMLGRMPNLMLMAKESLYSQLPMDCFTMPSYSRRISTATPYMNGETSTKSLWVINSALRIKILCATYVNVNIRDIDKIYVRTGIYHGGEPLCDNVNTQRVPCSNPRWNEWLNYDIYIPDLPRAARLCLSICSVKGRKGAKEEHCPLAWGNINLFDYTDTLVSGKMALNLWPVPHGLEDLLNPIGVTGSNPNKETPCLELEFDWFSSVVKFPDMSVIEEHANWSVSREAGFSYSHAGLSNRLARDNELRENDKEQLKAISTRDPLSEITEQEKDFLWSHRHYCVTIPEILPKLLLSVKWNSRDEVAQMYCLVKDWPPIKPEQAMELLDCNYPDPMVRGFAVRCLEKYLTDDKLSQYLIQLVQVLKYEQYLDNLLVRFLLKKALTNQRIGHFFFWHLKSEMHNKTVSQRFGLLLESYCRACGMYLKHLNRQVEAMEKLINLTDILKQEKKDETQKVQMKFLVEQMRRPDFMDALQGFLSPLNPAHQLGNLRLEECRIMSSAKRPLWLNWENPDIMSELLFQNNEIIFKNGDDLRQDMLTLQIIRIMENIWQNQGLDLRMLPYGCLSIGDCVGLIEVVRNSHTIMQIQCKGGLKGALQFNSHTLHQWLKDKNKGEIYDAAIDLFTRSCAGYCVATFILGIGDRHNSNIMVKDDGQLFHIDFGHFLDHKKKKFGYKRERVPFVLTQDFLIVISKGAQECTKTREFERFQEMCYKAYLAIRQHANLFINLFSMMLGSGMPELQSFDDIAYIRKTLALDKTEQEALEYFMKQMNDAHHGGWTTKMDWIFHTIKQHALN
- Sequence (P27986 whole entry partner, species assumed): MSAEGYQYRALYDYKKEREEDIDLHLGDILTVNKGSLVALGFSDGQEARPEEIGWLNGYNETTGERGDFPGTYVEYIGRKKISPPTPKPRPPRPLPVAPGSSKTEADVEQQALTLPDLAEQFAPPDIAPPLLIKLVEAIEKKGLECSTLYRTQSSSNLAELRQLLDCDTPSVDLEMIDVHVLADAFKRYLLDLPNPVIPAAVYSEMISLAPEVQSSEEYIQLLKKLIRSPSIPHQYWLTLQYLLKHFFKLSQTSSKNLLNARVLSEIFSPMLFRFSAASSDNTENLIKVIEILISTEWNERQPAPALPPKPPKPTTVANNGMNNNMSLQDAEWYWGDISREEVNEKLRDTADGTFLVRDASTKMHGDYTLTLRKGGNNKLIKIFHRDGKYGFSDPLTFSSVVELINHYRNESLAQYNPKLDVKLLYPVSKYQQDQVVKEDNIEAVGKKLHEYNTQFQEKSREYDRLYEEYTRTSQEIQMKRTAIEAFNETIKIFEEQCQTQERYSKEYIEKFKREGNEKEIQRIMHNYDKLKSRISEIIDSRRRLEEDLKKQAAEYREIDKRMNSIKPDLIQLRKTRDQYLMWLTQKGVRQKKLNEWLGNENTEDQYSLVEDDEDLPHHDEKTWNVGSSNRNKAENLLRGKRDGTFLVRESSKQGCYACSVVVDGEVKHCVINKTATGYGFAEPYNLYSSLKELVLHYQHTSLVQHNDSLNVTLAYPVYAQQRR
- assay-remarks: PI3K-alpha fluorescence polarization assay
- Format: biochemical
- measurement-conditions: read-out: PI3Kα Avg. IC50
pIC50: recorded values
For clarity, pIC50 is expressed as the negative log10 of concentration in mol/L.

COc1ccc2[nH]c(-c3c(C)nn(C)c3C)c(/C=C3\Oc4ccc(NC(=O)Nc5ccc(C(=O)N6CCN(C)CC6)cc5)cc4C3=O)c2c1 : 9.70

Challenge: Give pIC50 for COc1ccc2c(c1)c(/C=C1\Oc3cc(O)cc(O)c3C1=O)cn2CCCC#N tested on PI3K-alpha (Homo sapiens).
Response given: 8.10

Challenge: Give pIC50 for COc1ccc2c(c1)c(/C=C1\Oc3cc(O)cc(Cl)c3C1=O)c(C)n2CCCN(C)C tested on PI3K-alpha (Homo sapiens).
Response given: 7.14

Challenge: Give pIC50 for COc1ccc2c(c1)c(/C=C1\Oc3c(ccc(O)c3C)C1=O)c(C)n2CCCN(C)C tested on PI3K-alpha (Homo sapiens).
Response given: 6.18

Challenge: Give pIC50 for N#Cc1cccc2c1c(C=C1Oc3cc(O)cc(O)c3C1=O)cn2Cc1ccncc1 tested on PI3K-alpha (Homo sapiens).
Response given: 5.77

Challenge: Give pIC50 for COc1ccc2c(c1)c(/C=C1\Oc3cc(Br)ccc3C1=O)cn2CCCN(C)C tested on PI3K-alpha (Homo sapiens).
Response given: 5.11

----------
- tgt: PI3K-gamma (Homo sapiens)
- assay-remarks: PI3K-gamma fluorescence polarization assay
- Format: biochemical
- measurement-conditions: PI3Kγ Avg. IC50
outcome-measure: IC50 (nM)
Express it in nM; write the number only.

COc1ccc2c(c1)c(/C=C1\Oc3cc(O)cc(C)c3C1=O)c(C1CC1)n2CCN1CCN(C)CC1 [Example 464] : 1450
COc1ccc2c(c1)c(/C=C1\Oc3cc(NC(=O)OC(C)(C)C)ccc3C1=O)cn2CCCN(C)C [Example 417] : 2100
CNC(=O)Nc1ccc2c(c1)C(=O)/C(=C/c1c(-c3c(C)n[nH]c3C)[nH]c3c(F)cc(OC)cc13)O2 [Compound 714] : 3.7
CCn1c(C)c(/C=C2\Oc3ccc(NC(=O)Nc4ccc(C(=O)N(C)CCCN(C)C)cc4)cc3C2=O)c2cc(OC)ccc21 [Compound 657] : 3.5
Cc1ccc2[nH]cc(/C=C3\Oc4c(ccc(O)c4O)C3=O)c2c1 [Example 65] : 3770

// next entry
Challenge: Let me know recorded IC50 for CNC(=O)Nc1ccc2c(c1)C(=O)/C(=C/c1c(-c3cccc(CN(C)C)c3)[nH]c3ccc(OC)cc13)O2 [Compound 629] , thanks.
Response given: 25.5

----------
pIC50: recorded values
- tgt: PI3K-delta (Homo sapiens)
- Sequence (O00329 whole entry, species assumed): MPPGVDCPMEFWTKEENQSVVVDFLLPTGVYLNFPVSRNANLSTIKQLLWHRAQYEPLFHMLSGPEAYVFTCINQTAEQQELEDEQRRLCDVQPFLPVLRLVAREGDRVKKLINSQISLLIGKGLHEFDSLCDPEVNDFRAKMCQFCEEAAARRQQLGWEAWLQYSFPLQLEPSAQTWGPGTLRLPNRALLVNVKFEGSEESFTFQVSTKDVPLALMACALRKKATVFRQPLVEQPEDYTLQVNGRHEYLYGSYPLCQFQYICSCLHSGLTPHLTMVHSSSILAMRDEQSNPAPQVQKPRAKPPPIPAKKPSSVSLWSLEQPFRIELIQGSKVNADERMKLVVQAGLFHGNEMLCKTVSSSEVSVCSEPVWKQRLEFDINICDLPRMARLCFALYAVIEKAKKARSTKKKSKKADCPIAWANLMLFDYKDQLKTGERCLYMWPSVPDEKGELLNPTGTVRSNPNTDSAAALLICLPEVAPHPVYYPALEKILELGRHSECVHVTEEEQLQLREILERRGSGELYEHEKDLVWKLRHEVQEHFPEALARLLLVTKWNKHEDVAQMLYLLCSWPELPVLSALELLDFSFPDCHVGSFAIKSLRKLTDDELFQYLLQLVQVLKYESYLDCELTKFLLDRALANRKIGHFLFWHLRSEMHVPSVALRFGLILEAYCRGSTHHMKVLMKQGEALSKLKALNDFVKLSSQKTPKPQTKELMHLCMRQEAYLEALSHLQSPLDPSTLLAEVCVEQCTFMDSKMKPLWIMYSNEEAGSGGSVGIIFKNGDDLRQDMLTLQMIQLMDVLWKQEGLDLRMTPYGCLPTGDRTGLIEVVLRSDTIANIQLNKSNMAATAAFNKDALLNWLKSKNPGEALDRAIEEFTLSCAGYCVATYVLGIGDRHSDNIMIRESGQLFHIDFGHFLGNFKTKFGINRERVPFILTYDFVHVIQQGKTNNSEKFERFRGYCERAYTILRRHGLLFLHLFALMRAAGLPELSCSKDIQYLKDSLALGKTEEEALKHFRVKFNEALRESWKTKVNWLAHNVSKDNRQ
- Sequence (P27986 whole entry partner, species assumed): as the sequence (P27986 whole entry partner, species assumed) above
- assay-remarks: PI3K-delta fluorescence polarization assay
- Assay type: biochemical
- measurement-conditions: read-out: PI3Kδ Avg. IC50
For clarity, pIC50 is expressed as the negative log10 of concentration in mol/L.

For orientation, consider the following solved cases.
COc1ccc2[nH]cc(/C=C3\Oc4cc(O)cc(O)c4C3=O)c2c1 : 7.15
COc1ccc2c(c1)c(C=C1Oc3cc(O)cc(O)c3C1=O)c(C)n2CCCCN(C)C : 9.00
COc1ccc2c(c1)c(C=C1Oc3cc(O)cc(O)c3C1=O)c(C)n2CCCN(C)C : 8.70
COc1ccc2[nH]c(-c3c(C)noc3C)c(/C=C3\Oc4cc(O)cc(O)c4C3=O)c2c1 : 9.52
COc1ccc2[nH]c(C)c(C=C3Oc4cc(O)cc(O)c4C3=O)c2c1 : 8.24

Challenge: Let me know recorded pIC50 for COc1ccc2c(c1)c(C=C1Oc3cc(O)cc(O)c3C1=O)c(C)n2CCCN1CCN(CCN2CCOCC2)CC1 , thanks.
Response given: 8.70

Challenge: Let me know recorded pIC50 for COc1ccc2c(c1)c(C=C1Oc3cc(O)cc(O)c3C1=O)c(C)n2CCN1CCN(CCO)CC1 , thanks.
Response given: 8.55

Challenge: Let me know recorded pIC50 for COc1ccc2c(c1)c(/C=C1\Oc3cc(O)ccc3C1=O)c(C(=O)N(C)C)n2CCN1CCN(C)CC1 , thanks.
Response given: 8.70

Challenge: Let me know recorded pIC50 for COC(=O)c1ccc2[nH]cc(C=C3Oc4cc(O)cc(O)c4C3=O)c2c1 , thanks.
Response given: 7.23

Challenge: Let me know recorded pIC50 for COc1ccc2c(c1)c(C=C1Oc3cc(O)cc(O)c3C1=O)cn2CCCCN1CCOCC1 , thanks.
Response given: 8.07

----------
- tgt: PI3K-alpha (Homo sapiens)
- assay-remarks: PI3K-alpha fluorescence polarization assay
- Format: biochemical
- measurement-conditions: read-out: PI3Kα Avg. IC50
log10 of IC50: recorded values
Give log10 of IC50, with IC50 taken in nM.

For orientation, consider the following solved cases.
COc1ccc2c(C=C3Oc4cc(O)cc(O)c4C3=O)c[nH]c2c1 [Example 186] : 3.76
COC(=O)c1ccc2[nH]cc(C=C3Oc4cc(O)cc(O)c4C3=O)c2c1 [Example 166] : 1.45
CCc1cccc2c(C=C3Oc4cc(O)cc(O)c4C3=O)cn(CCCC#N)c12 [Example 232] : 2.79
COc1cccc2c(C=C3Oc4cc(O)cc(O)c4C3=O)cn(C)c12 [Example 251] : 3.38
COc1ccc2[nH]c(-c3c(C)nn(C)c3C)c(/C=C3\Oc4ccc(NC(=O)Nc5ccc(C(=O)N(C)C)cc5)cc4C3=O)c2c1 [Compound 704] : -0.22
CCc1cc(OC)cc2c(/C=C3\Oc4cc(O)cc(O)c4C3=O)cn(CCN3CCN(C)CC3)c12 [Compound 512] : 1.56

Challenge: Let me know recorded log10 of IC50 for CNC(=O)Nc1ccc2c(c1)C(=O)/C(=C/c1c(-c3ccc(CN(C)C)cc3)n(CCN3CCN(C)CC3)c3ccc(OC)cc13)O2 [Compound 630] , thanks.
Response given: 0.06

Challenge: Let me know recorded log10 of IC50 for CN(C)c1ccc(-c2cccc3c2c(/C=C2\Oc4cc(O)cc(O)c4C2=O)cn3C)cc1 [Example 385] , thanks.
Response given: 3.45

----------
- tgt: UniProt:P48736
- assay-remarks: PI3K-gamma fluorescence polarization assay
- Assay type: biochemical
- measurement-conditions: PI3Kγ Avg. IC50
pIC50: recorded values
For clarity, pIC50 is expressed as the negative log10 of concentration in mol/L.

C#CCNC(=O)Nc1ccc2c(c1)C(=O)/C(=C/c1cn(CCN3CCN(C)CC3)c3ccc(OC)cc13)O2 : 5.55
CNC(=O)Nc1ccc2c(c1)C(=O)/C(=C/c1c(C)n(CCN3CCCC3)c3ccc(OC)cc13)O2 : 6.15
COc1ccc2c(c1)c(C=C1Oc3cc(O)cc(O)c3C1=O)c(C)n2CCCCN1CCC(N(C)C)C1 (centres unmarked) : 6.48
O=C1C(=Cc2c(-c3ccccc3)n(CC3CC3)c3ccccc23)Oc2cc(O)cc(O)c21 : 5.35
Cn1cc(/C=C2\Oc3cc(O)cc(O)c3C2=O)c2c(-c3ccc(NCCN4CCOCC4)nc3)cccc21 : 5.23

Challenge: Let me know recorded pIC50 for Cn1c(-c2cccnc2)c(C=C2Oc3cc(O)cc(O)c3C2=O)c2ccccc21 , thanks.
Response given: 4.96

Challenge: Let me know recorded pIC50 for COc1ccc2c(c1)c(/C=C1\Oc3ccc(O)cc3C1=O)cn2CCCN(C)C , thanks.
Response given: 5.60

Challenge: Let me know recorded pIC50 for COc1ccc2c(c1)c(/C=C1\Oc3cc(O)ccc3C1=O)c(C(=O)N(C)C)n2CCN1CCN(C)CC1 , thanks.
Response given: 6.23
